Cited source: ChEMBL document CHEMBL1135144

# experiment: Compound was evaluated for rate of clearance in IPRL (Isolated Perfused Rat Liver)
# Assay type: ADME
experimental endpoint: k el (s⁻¹)

1. CCCS(=O)(=O)c1cc(NC(Cc2ccc(NC(=O)c3c(Cl)cncc3Cl)cc2)C(=O)O)ncc1C(=O)O (centres undefined)
2. CCCS(=O)(=O)c1cc(NC(Cc2ccc(NC(=O)c3c(Cl)cncc3Cl)cc2)C(=O)O)ncc1Cl (centres undefined)
3. CCCS(=O)(=O)c1nc(C)cc(N[C@@H](Cc2ccc(NC(=O)c3c(Cl)cncc3Cl)cc2)C(=O)O)n1
Order the records by k el, with each subsequent value no larger than the one before. Answer by listing the labels in the order asked for.
3, 2, 1
(3: 0.00181 s⁻¹, 2: 0.000583 s⁻¹, 1: 5.56e-05 s⁻¹)
